Target: T1, AFP158/HLA-A*02:01 complex (human)
T1 construct: biotinylated on the BSP by BirA for ELISA and panning; also called biotinylated AFP158/HLA-A*02:01 complex; Bio-AFP158
Test: SPR; vs AS170036 VL1VH1;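 note: crude scFv captured on sensor chip, peptide–HLA complex flowed over at several concentrations, KD estimated from association and dissociation kinetic rates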
Measured Affinity increase by item
quantity-name: Affinity increase (fold)

- binder: "AS170036 VL1VH1 HP110A (scFv) scFv: QSALTQPRSVSGSPGQSVTISCAGTSSDVGSENYVSWYQQHPGKAPKLMIYQVNKRASGVPDRFSGSKSGNTASLTISGLQAEDEADYYCASYRSSDHNIVFGGGTKLTVLGGGGSGGGGSGGGGSEVQLVESGGGLVQPGGSLRLSCAASGFTFSSYAMSWVRQAPGKGLEWVSTINSGTGSPYYADSVKGRFTISRDNSKNTLYLQMNSLRAEDTAVYYCAKNFFDGSWFLGPAAMDYWGQGTLVTVSSHHHHHH"
  reported-result: 1.3
- binder: "AS170036 VL1VH1 HL107A (scFv) scFv: QSALTQPRSVSGSPGQSVTISCAGTSSDVGSENYVSWYQQHPGKAPKLMIYQVNKRASGVPDRFSGSKSGNTASLTISGLQAEDEADYYCASYRSSDHNIVFGGGTKLTVLGGGGSGGGGSGGGGSEVQLVESGGGLVQPGGSLRLSCAASGFTFSSYAMSWVRQAPGKGLEWVSTINSGTGSPYYADSVKGRFTISRDNSKNTLYLQMNSLRAEDTAVYYCAKNFFDGSWFAGPPAMDYWGQGTLVTVSSHHHHHH"
  reported-result: 0.1
- binder: "AS170036 VL1VH1 HG108Q (scFv) scFv: QSALTQPRSVSGSPGQSVTISCAGTSSDVGSENYVSWYQQHPGKAPKLMIYQVNKRASGVPDRFSGSKSGNTASLTISGLQAEDEADYYCASYRSSDHNIVFGGGTKLTVLGGGGSGGGGSGGGGSEVQLVESGGGLVQPGGSLRLSCAASGFTFSSYAMSWVRQAPGKGLEWVSTINSGTGSPYYADSVKGRFTISRDNSKNTLYLQMNSLRAEDTAVYYCAKNFFDGSWFLQPPAMDYWGQGTLVTVSSHHHHHH"
  reported-result: 1.4
- binder: "AS170036 VL1VH1 HL107I (scFv) scFv: QSALTQPRSVSGSPGQSVTISCAGTSSDVGSENYVSWYQQHPGKAPKLMIYQVNKRASGVPDRFSGSKSGNTASLTISGLQAEDEADYYCASYRSSDHNIVFGGGTKLTVLGGGGSGGGGSGGGGSEVQLVESGGGLVQPGGSLRLSCAASGFTFSSYAMSWVRQAPGKGLEWVSTINSGTGSPYYADSVKGRFTISRDNSKNTLYLQMNSLRAEDTAVYYCAKNFFDGSWFIGPPAMDYWGQGTLVTVSSHHHHHH"
  reported-result: 1.1
- binder: "AS170036 VL1VH1 HD102G (scFv) scFv: QSALTQPRSVSGSPGQSVTISCAGTSSDVGSENYVSWYQQHPGKAPKLMIYQVNKRASGVPDRFSGSKSGNTASLTISGLQAEDEADYYCASYRSSDHNIVFGGGTKLTVLGGGGSGGGGSGGGGSEVQLVESGGGLVQPGGSLRLSCAASGFTFSSYAMSWVRQAPGKGLEWVSTINSGTGSPYYADSVKGRFTISRDNSKNTLYLQMNSLRAEDTAVYYCAKNFFGGSWFLGPPAMDYWGQGTLVTVSSHHHHHH"
  reported-result: 0.1
